The origin of these recorded values is PubChem BioAssay (NCATS).

# TEST METHOD NOTES: qHTS for Inhibitors of Plasmodium falciparum (DD2) proliferation (AID 504314);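 further: parasite DNA measured by SYBR Green fluorescence after red cell lysis; plate controls were DMSO vehicle for no effect and artemisinin wells for full effect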
# CONDITION INFO: P. falciparum Dd2 in erythrocytes, SYBR Green growth, 72 h; series mostly up to 6.11 µM
# Text: Plasmodium falciparum is a virulent malarial parasite that kills 1-2 million people worldwide each year. […] Because mature erythrocytes lack DNA, only Plasmodium-derived DNA is detected. […] Bennett TN, Paguio, M., Gligorijevic, B., Seudieu, C., Kosar, A. D., Davidson, E., and Roepe, P. D. Novel, rapid, and inexpensive cell-based quantification of antimalarial drug efficacy Antimicrobial Agents Chemother. […]
Records with an inconclusive call do not appear. The source made the active and inactive calls. The call rests on the fitted dose curve; in most records, active means well fitted inhibition curve with a large enough effect; inconclusive means small, poorly fitted or top-dose-only effect; inactive means flat fitted curve, though single readings scatter.
OUTCOME MEASURE: activity, negative = inhibition

1) COC(=O)C[C@H]1c2ccccc2[C@@H]2C(=C[C@@H](C)[C@H]3C(=O)NC(=O)[C@H]32)N1C(=O)OC: inactive
2) COCCN1C(=O)NC(c2cccc(C(F)(F)F)c2)C(C(=O)OC)=C1C (stereo unspecified): inactive
3) CC(=O)C1=C(C)N(CC#C[Si](C)(C)C)C(=O)N(C(C)=O)C1c1ccccc1 (stereo unspecified): inactive
4) CCCCC1=CC2=C(c3ccco3)C(=O)C(C)(OC(=O)c3ccc(OC)cc3)C(=O)C2=CN1CCCN(CC)CC (stereo unspecified): inactive
5) C[C@H]1COc2c(N3CCN(C)CC3)c(F)cc3c(=O)c(C(=O)NCc4ccco4)cn1c23: inactive
6) O=C(C=Cc1ccccc1)c1ccccc1O: inactive

input: Report activity, negative = inhibition for `COc1cccc([C@H]2Oc3ccc(OC)cc3C(=NOCC[C@@H]3C=C[C@H](OC(C)=O)[C@@H](COC(C)=O)O3)[C@H]2O)c1` please.
output: inactive

input: Fill blank: measured activity, negative = inhibition of the compound `COc1cccc([C@H](O)Cn2cc(-c3ccc(CON=C(C)C)cc3)nn2)c1` is ____.
output: inactive

input: So what's the measured activity, negative = inhibition for this one? `CCN1C(=O)[C@@H]2[C@H]3[C@H](O)[C@H](O)CC(=NO[C@H](C)c4cn([C@@H]5COC[C@@H]5O)nn4)[C@@H]3CC[C@H]2C1=O`
output: inactive

input: Give the measured activity, negative = inhibition of `COC(=O)[C@H]1[C@@H](c2ccccc2)NC(=O)N(Cc2ccccc2)[C@@H]1C` .
output: inactive

input: What does the record list as activity, negative = inhibition for `COc1ccc(COC(=O)NN=C2C[C@@H](O)[C@@H](O)[C@@H]3[C@H]4C(=O)N(Cc5ccccc5)C(=O)[C@@H]4CC[C@@H]23)cc1` ?
output: inactive

input: So what does the record say about activity, negative = inhibition for `C=CCN1c2ccccc2[C@]23CCC(=O)N(CCc4ccccn4)C2=NC(C(=O)OC)=C(C(=O)OC)[C@H]13` ?
output: inactive

input: Tell me the measured activity, negative = inhibition of `CC1=C[C@@H](COCc2ccccc2)O[C@@]2(C1)C(=O)N(Cc1ccc(Br)cc1)c1ccccc12` , please.
output: inactive

input: Using the record for `CC(C)[C@@H](OCc1ccccc1)[C@H](C)C=NO[C@H](C)c1cn([C@H](CO)Cc2ccccc2)nn1` , report its activity, negative = inhibition.
output: inactive

input: Find the recorded activity, negative = inhibition belonging to `O=P1(O)Oc2c(-c3ccccc3)cc3ccccc3c2-c2c(c(-c3ccccc3)cc3ccccc23)O1` and report it.
output: inactive

input: Recorded activity, negative = inhibition for COC(=O)C1=C(C)N(Cc2ccccc2)C(=O)NC1c1ccccc1 (stereo unspecified) , please?
output: inactive

input: What does the record list as activity, negative = inhibition for `CC(C)CON=C1C[C@@H](O)[C@@H](O)[C@@H]2[C@H]3C(=O)N(c4ccc(F)cc4F)C(=O)[C@@H]3CC[C@@H]12` ?
output: inactive

input: Record request: activity, negative = inhibition value, item CC1(OC(=O)CCc2ccccc2)C(=O)C=C2C=C(c3ccc(C#N)cc3)N(CC3CC3)C=C2C1=O (stereo unspecified)
output: -3.92% [at 1.12 µM] (inactive)
